Data origin: ChEMBL document CHEMBL1152840

# PROCEDURE DETAILS: Antileukotrienic activity in rat PMNC assessed as inhibition of Ca2+ ionophore A23187-induced LTB4 production by RIA
# Type: functional
pIC50: −log10 of the molar value.
OBSERVABLE: pIC50

COMPOUND: CN(CCc1ccccc1)C(=O)Cc1ccc(OCCCCOc2ccc(CCC(=O)O)cc2)cc1
OBSERVABLE: pIC50
VALUE OBSERVED: 5.00
--
COMPOUND: CC(C(=O)O)c1ccc(OCCCOc2ccc(CC(=O)N(C)CCc3ccccc3)cc2)cc1 (stereo not drawn)
OBSERVABLE: pIC50
VALUE OBSERVED: 4.00
--
COMPOUND: CN(CCc1ccccc1)C(=O)Cc1ccc(OCCCOc2ccc(CCC(=O)O)cc2)cc1
OBSERVABLE: pIC50
VALUE OBSERVED: 4.96

---

# Tested on: Mus musculus
# PROCEDURE DETAILS: Antiinflammatory activity in mouse assessed as inhibition of arachidonic acid-induced ear lobe edema at 200 mg/kg, po administered 1 hr before arachidonic acid challenge measured after 1 hr relative to untreated control
# Assay type: functional

COMPOUND: CN(CCc1ccccc1)C(=O)Cc1ccc(OCCCOc2ccc(CCC(=O)O)cc2)cc1
STUDY TARGET: Mus musculus
UNIT TEXT: %
inhibition in vivo at 200 mg/kg: 23
//
COMPOUND: COc1cc(/C=C/C(=O)O)ccc1OCCCOc1ccc(CC(=O)N(C)CCc2ccccc2)cc1
STUDY TARGET: Mus musculus
UNIT TEXT: %
inhibition in vivo at 200 mg/kg: 16
//
COMPOUND: COc1cc(CCC(=O)O)ccc1OCCCCOc1ccc(CC(=O)N(C)CCc2ccccc2)cc1
STUDY TARGET: Mus musculus
UNIT TEXT: %
inhibition in vivo at 200 mg/kg: 20
//
COMPOUND: CN(CCc1ccccc1)C(=O)Cc1ccc(OCCCOc2ccc(CCCC(=O)O)cc2)cc1
STUDY TARGET: Mus musculus
UNIT TEXT: %
inhibition in vivo at 200 mg/kg: 13
//
COMPOUND: CN(CCc1ccccc1)C(=O)Cc1ccc(OCCCCOc2ccc(CCC(=O)O)cc2)cc1
STUDY TARGET: Mus musculus
UNIT TEXT: %
inhibition in vivo at 200 mg/kg: 13
//
COMPOUND: CC(C(=O)O)c1ccc(OCCCCOc2ccc(CC(=O)N(C)CCc3ccccc3)cc2)c(Cl)c1 (centres undefined)
STUDY TARGET: Mus musculus
UNIT TEXT: %
inhibition in vivo at 200 mg/kg: 37
//
COMPOUND: CC(C(=O)O)c1ccc(OCCCCOc2ccc(CC(=O)N(C)CCc3ccccc3)cc2)cc1 (centres undefined)
STUDY TARGET: Mus musculus
UNIT TEXT: %
inhibition in vivo at 200 mg/kg: 19
//
COMPOUND: CC(C(=O)O)c1cccc2ccc(OCCCOc3ccc(CC(=O)NCCc4ccccc4)cc3)cc12 (centres undefined)
STUDY TARGET: Mus musculus
UNIT TEXT: %
inhibition in vivo at 200 mg/kg: 12
//
COMPOUND: CN(CCc1ccccc1)C(=O)Cc1ccc(OCCOc2ccc(C(=O)CCC(=O)O)cc2)cc1
STUDY TARGET: Mus musculus
UNIT TEXT: %
inhibition in vivo at 200 mg/kg: 16
//
COMPOUND: CC(C(=O)O)c1ccc(OCCCOc2ccc(CC(=O)N(C)CCc3ccccc3)cc2)cc1 (centres undefined)
STUDY TARGET: Mus musculus
UNIT TEXT: %
inhibition in vivo at 200 mg/kg: 19
//
COMPOUND: CC(CCc1ccc(OCCCCOc2ccc(CC(=O)N(C)CCc3ccccc3)cc2)cc1)C(=O)O (centres undefined)
STUDY TARGET: Mus musculus
UNIT TEXT: %
inhibition in vivo at 200 mg/kg: 22
//
COMPOUND: CN(CCc1ccccc1)C(=O)Cc1ccc(OCCOc2ccc(/C=C/C(=O)O)cc2)cc1
STUDY TARGET: Mus musculus
UNIT TEXT: %
inhibition in vivo at 200 mg/kg: 9.4
//
COMPOUND: CN(CCc1ccccc1)C(=O)Cc1ccc(OCCCCOc2ccc(CCCC(=O)O)cc2)cc1
STUDY TARGET: Mus musculus
UNIT TEXT: %
inhibition in vivo at 200 mg/kg: 22
//
COMPOUND: CN(CCc1ccccc1)C(=O)Cc1ccc(OCCCCOc2ccc(/C=C/C(=O)O)cc2)cc1
STUDY TARGET: Mus musculus
UNIT TEXT: %
inhibition in vivo at 200 mg/kg: 22
